Each entry below lists one item and its recorded AC50 value.
- targetEntity: Paired box protein Pax-8 (Homo sapiens, UniProt Q06710)
- Sequence (Q06710 whole entry): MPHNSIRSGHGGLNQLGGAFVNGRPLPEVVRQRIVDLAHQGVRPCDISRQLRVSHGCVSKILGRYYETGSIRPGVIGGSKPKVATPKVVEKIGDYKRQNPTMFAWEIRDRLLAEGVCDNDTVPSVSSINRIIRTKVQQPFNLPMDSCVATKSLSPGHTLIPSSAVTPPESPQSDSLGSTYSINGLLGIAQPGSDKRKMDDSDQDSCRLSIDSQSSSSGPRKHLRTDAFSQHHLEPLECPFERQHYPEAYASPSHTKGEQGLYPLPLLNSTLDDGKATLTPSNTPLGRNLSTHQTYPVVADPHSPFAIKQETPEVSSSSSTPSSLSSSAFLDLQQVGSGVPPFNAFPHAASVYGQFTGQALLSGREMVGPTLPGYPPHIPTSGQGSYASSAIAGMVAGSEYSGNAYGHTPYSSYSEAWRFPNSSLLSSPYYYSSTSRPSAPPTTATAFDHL
- assayMethodText: PAX8 transcriptional activity inhibition in RMG-I – RMG-I cells, luciferase, cherry-pick, dose response (AID 687027);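 further: luciferase reporter driven by Pax8 target thyroperoxidase promoter measured by SteadyGlo luminescence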
- Type: functional, cell-based
Calls of active or inactive are those of the source.

// AC50 lookup, key: `C[C@H](CO)N1C[C@H](C)[C@H](CN(C)Cc2ccc(C(F)(F)F)cc2)OCCCC[C@H](C)Oc2ccc(NC(=O)c3ccccc3)cc2C1=O`
9.33 µM (active)

Can you check `Cc1ccc(S(=O)(=O)N(C)C[C@@H]2OCCCC[C@H](C)Oc3ccc(NS(=O)(=O)c4cccs4)cc3C(=O)N([C@H](C)CO)C[C@H]2C)cc1` next?
6.6 µM (active)

Can you check `C[C@@H]1CN([C@@H](C)CO)C(=O)Cc2cc(NS(=O)(=O)c3ccc(F)cc3)ccc2O[C@H]1CN(C)Cc1ccc(C(F)(F)F)cc1` next?
4.76 µM (active)

Can you check `COc1ccc(S(=O)(=O)N(C)C[C@H]2OCCCC[C@@H](C)Oc3ccc(NS(=O)(=O)c4c(C)noc4C)cc3C(=O)N([C@H](C)CO)C[C@H]2C)cc1` next?
7.76 µM (active)

Can you check `COc1cccc(S(=O)(=O)N(C)C[C@H]2OCc3ccccc3-c3c(n(C)c4ccccc34)C(=O)N([C@H](C)CO)C[C@H]2C)c1` next?
9.53 µM (active)

***
// AC50 lookup, key: `O=C(C[C@H]1C[C@@H]2c3cc(NC(=O)Nc4ccc(C(F)(F)F)cc4)ccc3O[C@@H]2[C@@H](CO)O1)NCc1ccc(Cl)cc1`
7.85 µM (active)

Can you check `N#C[C@H]1[C@@H](c2ccc(C#CC3CCCCC3)cc2)[C@@H](CO)N1S(=O)(=O)c1ccccc1` next?
8.09 µM (active)

----------
- targetEntity: Microphthalmia-associated transcription factor (Homo sapiens, UniProt O75030)
- Sequence (O75030 whole entry): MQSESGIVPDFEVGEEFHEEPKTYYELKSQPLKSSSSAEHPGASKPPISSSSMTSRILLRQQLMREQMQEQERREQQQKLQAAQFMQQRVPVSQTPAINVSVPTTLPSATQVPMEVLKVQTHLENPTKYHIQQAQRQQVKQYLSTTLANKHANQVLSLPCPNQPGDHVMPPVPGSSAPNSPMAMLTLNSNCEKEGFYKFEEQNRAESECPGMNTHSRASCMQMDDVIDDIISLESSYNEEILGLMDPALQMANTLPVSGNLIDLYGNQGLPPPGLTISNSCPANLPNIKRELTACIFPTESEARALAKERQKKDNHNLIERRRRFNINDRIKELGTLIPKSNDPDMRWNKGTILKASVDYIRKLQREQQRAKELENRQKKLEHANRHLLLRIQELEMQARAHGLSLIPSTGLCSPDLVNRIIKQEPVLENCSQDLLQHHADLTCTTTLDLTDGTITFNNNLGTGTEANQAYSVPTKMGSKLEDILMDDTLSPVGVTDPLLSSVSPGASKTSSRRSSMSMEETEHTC
- assayMethodText: reducers of TRPM1 reporter luminescence, concentration series – cell-based, SK-MEL-5, cherry-picked, set 3, MITF inhibitor project, dose response (AID 493073);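 further: SK-MEL-5 melanoma cells with luciferase driven by the MITF target TRPM1 promoter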
- Format: functional
The source made the active and inactive calls.
Each entry below lists one item and its recorded AC50 value.

// AC50 lookup, key: `COc1cc(SC)ccc1C(=O)Nc1nc(C)cs1`
4.81 µM (active)

Can you check `O=c1c2ccccc2cnn1CCOc1ccccc1` next?
7.2 µM (active)

Can you check `O=C(/C=C/c1cccc([N+](=O)[O-])c1)n1cnc2ccccc21` next?
4.39 µM (active)

Can you check `O=C(O)c1cc(N/N=C/C(Cl)=C/c2ccccc2)ccc1Cl` next?
10.4 µM (active)

Can you check `Cc1ccc(C(=O)N/N=C/c2ccc([N+](=O)[O-])s2)cc1` next?
2.2 µM (active)

Okay, next one:
// AC50 lookup, key: `O=C(Nc1ccc(N2CCN(C(=O)c3ccccc3)CC2)cc1)c1ccc([N+](=O)[O-])o1`
17.9 µM (active)

----------
- targetEntity: Cytochrome P450 2C19 (Homo sapiens)
- Sequence (P33261 whole entry): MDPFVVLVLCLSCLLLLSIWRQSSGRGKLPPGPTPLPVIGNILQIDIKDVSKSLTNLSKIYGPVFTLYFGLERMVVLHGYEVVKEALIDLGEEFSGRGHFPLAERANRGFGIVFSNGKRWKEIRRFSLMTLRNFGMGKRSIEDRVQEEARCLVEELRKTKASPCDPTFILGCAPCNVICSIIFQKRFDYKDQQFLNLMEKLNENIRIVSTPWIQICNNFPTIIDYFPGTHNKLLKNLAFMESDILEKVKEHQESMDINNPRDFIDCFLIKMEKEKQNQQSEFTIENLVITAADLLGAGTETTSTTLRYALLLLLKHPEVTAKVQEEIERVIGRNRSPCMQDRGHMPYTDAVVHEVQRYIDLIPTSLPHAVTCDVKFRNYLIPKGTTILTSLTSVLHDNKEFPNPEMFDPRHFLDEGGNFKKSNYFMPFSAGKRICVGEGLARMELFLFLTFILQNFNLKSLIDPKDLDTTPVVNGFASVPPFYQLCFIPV
- assayMethodText: Cytochrome panel assay with activity outcomes. Panel member name: p450-cyp2c19 Compounds with AC50 equal or less than 10 uM are considered active
- Assay type: functional
- conditionContext: read-out: AC50
parameter: AC50

// AC50 lookup, key: `Nc1cc(Cl)nc(N/N=C/c2ccccc2[N+](=O)[O-])n1`
8.91 µM (inconclusive)

Can you check `Cc1ccc(C(=O)N/N=C/c2ccc([N+](=O)[O-])s2)cc1` next?
39.8 µM (inconclusive)

***
// AC50 lookup, key: `CCN(CCCNC(=O)C1CCN(S(=O)(=O)CC)CC1)c1cccc(C)c1`
39.8 µM (inconclusive)

----------
- targetEntity: Streptokinase A (Streptococcus pyogenes serotype M1, UniProt P10520)
- Sequence (P10520 whole entry): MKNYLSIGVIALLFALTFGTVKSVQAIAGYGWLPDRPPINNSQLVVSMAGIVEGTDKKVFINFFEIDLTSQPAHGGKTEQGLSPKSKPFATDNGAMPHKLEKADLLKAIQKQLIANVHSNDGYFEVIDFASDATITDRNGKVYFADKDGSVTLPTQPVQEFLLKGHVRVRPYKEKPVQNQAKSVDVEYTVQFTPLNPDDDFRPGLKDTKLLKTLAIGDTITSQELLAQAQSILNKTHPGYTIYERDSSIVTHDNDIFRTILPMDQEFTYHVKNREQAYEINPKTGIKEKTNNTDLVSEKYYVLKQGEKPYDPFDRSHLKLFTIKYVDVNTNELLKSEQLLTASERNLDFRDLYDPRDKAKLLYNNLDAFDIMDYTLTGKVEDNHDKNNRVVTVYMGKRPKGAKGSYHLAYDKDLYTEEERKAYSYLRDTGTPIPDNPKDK
- assayMethodText: viability-normalized secreted streptokinase activity reduction – plasminogen activation absorbance, OD405, dose response (AID 1914);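 further: secreted streptokinase activity via plasminogen activation per viability signal from cell pellet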
- Type: functional, Streptococcus pyogenes M1 GAS
Active and inactive are the calls of the source.
Each entry below lists one item and its recorded EC50 value.

// EC50 lookup, key: CCC(=O)N(CCC(Cc1ccccc1)c1ccc2c(c1)OCO2)Cc1ccccc1F (centres undefined)
10.7 µM (active)

Can you check `c1ccc2sc(SCSc3nc4ccccc4s3)nc2c1` next?
> 150 µM (not active)

Can you check `Cn1c(-c2cc(Br)ccc2O)n[nH]c1=S` next?
> 150 µM (not active)

Okay, next one:
// EC50 lookup, key: `Cn1cccc1C(=O)Nc1nc(-c2ccccn2)cs1`
> 150 µM (not active)

----------
- targetEntity: Paired box protein Pax-8 (Homo sapiens, UniProt Q06710)
- assayMethodText: PAX8 transcriptional activity inhibition in RMG-I – RMG-I cells, luciferase, cherry-pick, dose response (AID 687027);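 further: luciferase reporter driven by Pax8 target thyroperoxidase promoter measured by SteadyGlo luminescence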
- Assay type: functional, cell-based
The source made the active and inactive calls.
parameter: AC50

Guide cases for AC50, answers given:
// AC50 lookup, key: `O=C(Nc1ccc(N2CCN(C(=O)c3ccccc3)CC2)cc1)c1ccc([N+](=O)[O-])o1`
3.92 µM (active)

Can you check `C[C@@H]1CCCCO[C@H](CN(C)C(=O)Nc2ccc(F)cc2)[C@@H](C)CN([C@@H](C)CO)C(=O)c2cc(NS(=O)(=O)c3ccc(Cl)cc3)ccc2O1` next?
4.84 µM (active)

Okay, next one:
// AC50 lookup, key: `C[C@H](CO)N1C[C@H](C)[C@H](CN(C)C(=O)[C@H](Cc2ccccc2)N(C)C)OCc2ccccc2-c2c(n(C)c3ccccc23)C1=O`
16.4 µM (active)
